These measurements were taken from the supplement of paper PMC6135742.

Readings of MBP+ mature oligodendrocyte number for the listed molecules
tested on: jimpy (Plp1 jimpy) mouse iPSC-derived oligodendrocyte progenitor cells; test: MBP+ mature oligodendrocyte number relative to DMSO vehicle control (SDs above negative control mean); higher = more surviving jimpy oligodendrocytes (rescue); conditions: 10 µM; 3 days;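 also: 10 µM single dose with 3-day oligodendrocyte differentiation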
Where a name gives a salt, the structure may show the parent alone. In all, about 2,600 compounds were measured (“MBP+ mature oligodendrocyte number relative to DMSO vehicle control”: median about -0.34, highest 2% from about 13 on). What follows is part of a selection rich in the highest values, with near analogues and random picks from the rest.

These recorded examples may help you get a feel for the data.
molecule: CCCCS(=N)(=O)CCC(N)C(=O)O (racemic) [DL-Buthionine-[S,R]-sulfoximine]
MBP+ mature oligodendrocyte number: -0.472

molecule: CCc1cc2c(cc1N1CCC(N3CCOCC3)CC1)C(C)(C)c1[nH]c3cc(C#N)ccc3c1C2=O
MBP+ mature oligodendrocyte number: -2.2

molecule: O=C(O)c1ccccc1Nc1cccc(C(F)(F)F)c1 [Flufenamic acid]
MBP+ mature oligodendrocyte number: 1.25

molecule: C=C1CC[C@H](O)C/C1=C/C=C1\CCC[C@]2(C)[C@@H]([C@H](C)CCCC(C)C)CC[C@@H]12 [Vitamin D3]
MBP+ mature oligodendrocyte number: 5.56

molecule: CC(=O)[C@H]1CC[C@H]2[C@@H]3C=CC4=CC(=O)CC[C@@]4(C)[C@@H]3CC[C@]12C [Dydrogesterone]
MBP+ mature oligodendrocyte number: 0.153

// output MBP+ mature oligodendrocyte number; input C[C@]12C[C@H](O)[C@H]3[C@@H](CCC4=CC(=O)CC[C@@]43C)[C@@H]1CC[C@@H]2C(=O)CO [Corticosterone] ; system jimpy (Plp1 jimpy) mouse iPSC-derived oligodendrocyte progenitor cells;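 also: 10 µM single dose with 3-day oligodendrocyte differentiation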
1.49

// output MBP+ mature oligodendrocyte number; input OC(CCN1CCCCC1)(c1ccccc1)C1CC2C=CC1C2 (stereo unspecified) [Biperiden hydrochloride] ; system jimpy (Plp1 jimpy) mouse iPSC-derived oligodendrocyte progenitor cells;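 also: 10 µM single dose with 3-day oligodendrocyte differentiation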
2.59

// output MBP+ mature oligodendrocyte number; input `Cc1cc2nc(NCCCO)n(CC(=O)c3cc(C(C)(C)C)c(O)c(C(C)(C)C)c3)c2cc1C` ; system jimpy (Plp1 jimpy) mouse iPSC-derived oligodendrocyte progenitor cells;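 also: 10 µM single dose with 3-day oligodendrocyte differentiation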
-4

// output MBP+ mature oligodendrocyte number; input C[C@@H]1C[C@H]2[C@@H]3C[C@H](F)C4=CC(=O)C=C[C@]4(C)[C@@]3(F)[C@@H](O)C[C@]2(C)[C@@]1(O)C(=O)CO [Flumethasone] ; system jimpy (Plp1 jimpy) mouse iPSC-derived oligodendrocyte progenitor cells;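 also: 10 µM single dose with 3-day oligodendrocyte differentiation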
8.94
